experiment: yeast display, Sf9 membrane polyspecificity reagent, FACS + sequencing; frameworks hold sequencing errors
parameter: polyreactivity (PSR sort gate)

Consider the following illustrative entries.
1. QVQLVETGGGLVQAGGSLRLSCAPSGRTLTYYAMGWYRQAPGKERELVAAIRHSAGSTYYADSVKVRFTISRDNAKNSVYLLMNSLKPEVTAVYYCAKKYYGHRYPSIYDYWGQGTQVTVSS | high polyreactivity
2. QVQLVESGGGIVQAGGSLSLSCAASGRTFIRNAIGCYRQAPGKERELVAAINSGGITNYADSVKGRFTISRDNANNTVYLQMNSLKPEDTAVYYCNARQVLYGLYLRAYPYEYWGQGTQVTVSS | low polyreactivity
3. QVQLVESAGGLVQAGGSLRLSCAASGSTIYGCVMGWYRHAPGKERELVAGITRGGSTNYADSVKGRFTISRDNAKNTVYLQMNSLKPEDTAVYYCATRYFSRYYYWGQGTQVTVSS | high polyreactivity
4. QVQLVESGGALVQAGGSLRLSCAASGSIFYKYTMGWYRQAPGKERELVAAISRSGGSTYYADSVKGRFTISRDNAKNTVYLQMNSLKTEDTAVYYCATTGRVPGEYWGQGTQVTVSS | high polyreactivity
5. QVQLVESGGGLVQAGGSLRLSCAASGSTIVGYAMGWYRQAPGKERELVAAISGSGTSTYYADSVKGRFTISRDNAKNTVYLQMNSLKPEDSAVYYCNADPIFVYSSYNYWGQGTQVTVSS | low polyreactivity

Ask: Fill in: polyreactivity (PSR sort gate) of `QVQIVESGGGLVQAGGSLRLSCAASGRIFFVNTKGWYRQAPGKERELVATISWSGGSTYYADSVKGRFTISRDNAKNTVYLQMNSLKPEDTAVYYCNRSLTGYDELGYPVPYTYDYWGQGTQVTVSS` is ___
Result: low polyreactivity

Ask: Here is the next sequence: `QVQLVESGGGLVQAGGSLRLSCAASGFTFRTYAMGRYRQAPGTERELVAAINVSGGTYYADSVKGRFTISRDNAKNTVYLQMNSLKPEDSAVYYCTANRFRTGFDYWGQGTQVTVSS`
Result: low polyreactivity

Ask: And then `QVQLVDSGGGLVQAGGSLRLSCAASGITFSWYAMGWYRQAPGKERELVAAITRNGGSTYYADSVKGRFTISRDNAKNTVYLLMNSLKPEDTAVYYCNARKKYENYYWGQGTQVTVSS` , what is it?
Result: high polyreactivity

Ask: Now try `QVQLVESGGGLVHAGGSLRLSCAASGFTFGGYAKGWYIQAPGKERELVAAISQSGGRTYYADSVKGRFTISRDHAKNTFYLQMNSLKPEDTAVYYCAKPSTTYYQRGDYWGQGTQVTVSS` .
Result: high polyreactivity

Ask: Also, `QVQLVESGGGLVQAGGSLRLSCAASGRIFKRYAMGWYRQAPGKERELVAAISRGGSTNYADSVKGRFTISRDNAKNTVYLQMNSLKPEDTAVYYCAVQSGYSGSSQPVRYDYWGQGTQVTVSS` please.
Result: high polyreactivity

Ask: Do the same for `QVQLVESGGGLVQAGGSLRLSCAASGITFYTYAMGWYRQAPRKERELVAAISGSGGSTYYADSVKGRFTISRDNAKNTVYLQMNSLKPEDTAVYYCAARWPRGPFGNRHDYWGQGTQVTVSS` please
Result: high polyreactivity

Ask: Okay, and `QVQLVESGGGLVQAGGSLRLSCAASGSILDIYAMGWYRQAPGKERELVASISWGGGSTYYADSVKGRFTISRDNAKNTVYLQMNSLKQEDTAVYYCNAVYDLYHYWKFYYWGQGTQVTVSS` ?
Result: low polyreactivity

Ask: What about this sequence? `QVQLVESAGGLVQEGGSLRISCAASGRIFFYYSMGWYRQAPGKERELVAAISQSGGSTYYADSVKGRFTISRDNAKNTVYLQMNSLKPEDTAVYYCNAADPYYDTSAVAGDYWGHGTQVTVSS`
Result: low polyreactivity

Ask: Request: `QVQLVESGGGLVQAGGSLRLSSASSGSTSWIYAMGWYRPEPGKERELVAAISGRDGSTNYADSVKGRFTISRDNAKNTVYLQMIRVKPEDTAVYDCNATGRSFKRYGGDYWGQGTQVTVSS`
Result: high polyreactivity

Ask: Lookup `QVQLVESGGGLVQAGGSLRLSCAASGINFVYYAKGWYRPAAGKERELVAGITVNGGNTYYADSVKGRFTLSRDNAKNTVYLQMNSLKPEDTAVYYCNADYYWVLGVFDYWGHGTQVTVSS`
Result: low polyreactivity

Ask: Same again, this time with `QVQLVESGGGLVQAGGSLRLSCAASGFIFVKYVMGWYRQAPGKERELVATITNGVSTNYADSVKGRFTISRDNAKNTVYLQMNSLKPEDTAVYYCNTGSNAWYFSGDYWGQGTQVTVSS`
Result: low polyreactivity
